This collection of values is drawn from FireProtDB (doi:10.1002/cbic.201402128).

B1: Haloalkane dehalogenase, D4Z2G1 (parent)
chain: MSLGAKPFGEKKFIEIKGRRMAYIDEGTGDPILFQHGNPTSSYLWRNIMPHCAGLGRLIACDLIGMGDSDKLDPSGPERYAYAEHRDYLDALWEALDLGDRVVLVVHDWGSALGFDWARRHRERVQGIAYMEAIAMPIEWADFPEQDRDLFQAFRSQAGEELVLQDNVFVEQVLPGLILRPLSEAEMAAYREPFLAAGEARRPTLSWPRQIPIAGTPADVVAIARDYAGWLSESPIPKLFINAEPGALTTGRMRDFCRTWPNQTEITVAGAHFIQEDSPDEIGAAIAAFVRRLRPA

Variants of: B1
Settings: Sphingobium indicum (strain DSM 16413 / CCM 7287 / MTCC 6362 / UT26 / NBRC 101211 / UT26S); pH 7.5; Thermal; fluorescence; Na-Hepes 50 mM; reversible: no; structure 1MJ5; whole UniProt chain shown
Binary call on Tm with cut-off 50 °C: strictly below means True, and equality or higher means False.

Some solved cases for reference:
- CHANGES: "Q275P"
  GROUP: "True"
- CHANGES: "E192K"
  GROUP: "False"
- CHANGES: "E139T"
  GROUP: "False"
- CHANGES: "D147Y"
  GROUP: "False"

Is 50 °C strictly greater than the variant's reported Tm? variant: T249L
False
